Recorded IC50 for the following compounds
# Target Of Assay: COX-2 (Homo sapiens, UniProt P35354)
# Sequence (P35354 18-604): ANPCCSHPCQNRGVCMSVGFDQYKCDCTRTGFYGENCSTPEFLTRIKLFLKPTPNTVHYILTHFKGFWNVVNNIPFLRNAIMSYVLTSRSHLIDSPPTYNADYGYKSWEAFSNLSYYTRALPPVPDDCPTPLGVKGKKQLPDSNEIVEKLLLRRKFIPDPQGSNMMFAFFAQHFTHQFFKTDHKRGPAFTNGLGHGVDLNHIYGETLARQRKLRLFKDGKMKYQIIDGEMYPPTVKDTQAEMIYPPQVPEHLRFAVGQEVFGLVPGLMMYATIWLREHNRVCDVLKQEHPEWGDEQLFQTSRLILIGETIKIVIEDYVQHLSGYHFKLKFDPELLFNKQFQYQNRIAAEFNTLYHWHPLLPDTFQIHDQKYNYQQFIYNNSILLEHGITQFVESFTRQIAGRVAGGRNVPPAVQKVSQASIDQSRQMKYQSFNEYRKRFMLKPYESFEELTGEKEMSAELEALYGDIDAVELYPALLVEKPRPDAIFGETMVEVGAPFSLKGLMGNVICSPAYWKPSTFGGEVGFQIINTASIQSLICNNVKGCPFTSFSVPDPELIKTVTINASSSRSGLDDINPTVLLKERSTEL
Measurement Label: IC50 (nM)

Compound: COc1c(C)c2c(c(O)c1C/C=C(\C)CCC(=O)O)C(=O)OC2
Readout Unit: nM
Value Observed: 140

Compound: COc1c(C)c2c(c(O)c1C/C=C(\C)CCC(=O)OCCN1CCOCC1)C(=O)OC2 [Mycophenolate mofetil]
Readout Unit: nM
Value Observed: 190

====

Sequence of the target: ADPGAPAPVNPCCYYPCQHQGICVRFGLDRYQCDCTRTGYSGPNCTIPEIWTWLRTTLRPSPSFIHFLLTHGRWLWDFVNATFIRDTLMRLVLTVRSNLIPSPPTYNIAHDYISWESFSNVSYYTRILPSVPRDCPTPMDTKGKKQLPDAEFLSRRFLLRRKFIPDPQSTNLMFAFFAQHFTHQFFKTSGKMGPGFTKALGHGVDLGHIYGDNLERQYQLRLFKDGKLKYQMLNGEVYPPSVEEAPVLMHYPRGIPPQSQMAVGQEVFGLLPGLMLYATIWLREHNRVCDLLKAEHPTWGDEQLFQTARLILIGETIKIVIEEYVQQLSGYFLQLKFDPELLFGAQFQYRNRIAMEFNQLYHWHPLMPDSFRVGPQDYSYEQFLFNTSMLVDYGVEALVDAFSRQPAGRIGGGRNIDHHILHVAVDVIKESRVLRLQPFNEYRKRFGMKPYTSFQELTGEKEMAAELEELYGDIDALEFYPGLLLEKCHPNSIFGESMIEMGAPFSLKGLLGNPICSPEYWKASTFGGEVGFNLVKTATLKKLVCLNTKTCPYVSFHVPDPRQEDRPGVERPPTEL

Molecule: COc1c(C)c2c(c(O)c1C/C=C(\C)CCC(=O)OCCN1CCOCC1)C(=O)OC2 [Mycophenolate mofetil]
IC50: 5.53 µM

Molecule: COc1c(C)c2c(c(O)c1C/C=C(\C)CCC(=O)O)C(=O)OC2 [Mycophenolic acid, mycophenolic acid]
IC50: 4.62 µM
